test_protocol: self-splicing fitness, log relative to wild type (ln ratio); higher = more splicing; Tetrahymena group I intron in knt gene, E. coli kanamycin selection, DiMSum; sequences stand for … in CUCUCU…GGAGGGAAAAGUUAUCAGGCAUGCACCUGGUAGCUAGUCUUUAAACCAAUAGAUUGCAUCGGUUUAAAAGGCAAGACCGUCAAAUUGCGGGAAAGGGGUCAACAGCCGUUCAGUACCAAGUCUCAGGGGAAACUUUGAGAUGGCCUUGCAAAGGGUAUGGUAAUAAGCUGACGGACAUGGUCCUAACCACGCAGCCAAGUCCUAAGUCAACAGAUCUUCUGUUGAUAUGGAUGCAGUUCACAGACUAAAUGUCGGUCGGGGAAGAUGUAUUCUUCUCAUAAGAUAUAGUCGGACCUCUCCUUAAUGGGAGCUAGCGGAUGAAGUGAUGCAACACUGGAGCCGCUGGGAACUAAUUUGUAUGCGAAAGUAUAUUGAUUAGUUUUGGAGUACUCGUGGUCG;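 further: selection with 25 µg/mL kanamycin versus none on LB agar overnight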
condition_summary: 37 °C
Exercise: for every item that follows, state its recorded self-splicing fitness (ln).
One number for each entry.

For every listed record, write down its self-splicing fitness (ln).
1. UGCGAGCAAUAUUACGUGCG
2. AGUCAGCAAUAUUACGCUUA
3. UGAAAGCAAUAUUACGUCUA
4. AAACAGCAAUAUUACGGCGC
5. GCCAAGCAAUAUUACGUUUA
6. AGUUAGCAAUAUUACGGCAU

Given back:
1. -0.202
2. 0.278
3. 0.146
4. -0.594
5. -2.28
6. -0.161

====

test_protocol: self-splicing fitness, log relative to wild type (ln ratio); higher = more splicing; Tetrahymena group I intron in knt gene, E. coli kanamycin selection, DiMSum; sequences stand for … in CUCUCU…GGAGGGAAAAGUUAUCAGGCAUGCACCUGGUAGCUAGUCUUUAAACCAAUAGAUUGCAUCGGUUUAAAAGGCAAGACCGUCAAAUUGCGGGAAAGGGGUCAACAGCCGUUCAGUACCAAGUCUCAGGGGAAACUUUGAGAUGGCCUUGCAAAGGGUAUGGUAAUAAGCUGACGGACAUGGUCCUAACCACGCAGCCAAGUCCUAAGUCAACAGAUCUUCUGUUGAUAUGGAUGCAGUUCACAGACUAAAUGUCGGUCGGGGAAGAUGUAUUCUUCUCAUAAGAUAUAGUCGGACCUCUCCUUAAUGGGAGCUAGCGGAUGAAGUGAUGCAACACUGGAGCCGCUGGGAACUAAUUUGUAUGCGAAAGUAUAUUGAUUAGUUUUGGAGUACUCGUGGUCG
condition_summary: 37 °C
So basically, the class depends on measured self-splicing fitness (ln), and the ranges are bucket A (below -2), bucket B (-2 to below -0.6), bucket C (-0.6 or more)

UUUCAGCAAUAUUACGGUGU bucket A

Asked: Determine which band this sequence sits in: ACUAAGCAAUAUUACGAUUA
Given back: bucket C

====

test_protocol: self-splicing fitness, log relative to wild type (ln ratio); higher = more splicing; Tetrahymena group I intron in knt gene, E. coli kanamycin selection, DiMSum; sequences stand for … in CUCUCU…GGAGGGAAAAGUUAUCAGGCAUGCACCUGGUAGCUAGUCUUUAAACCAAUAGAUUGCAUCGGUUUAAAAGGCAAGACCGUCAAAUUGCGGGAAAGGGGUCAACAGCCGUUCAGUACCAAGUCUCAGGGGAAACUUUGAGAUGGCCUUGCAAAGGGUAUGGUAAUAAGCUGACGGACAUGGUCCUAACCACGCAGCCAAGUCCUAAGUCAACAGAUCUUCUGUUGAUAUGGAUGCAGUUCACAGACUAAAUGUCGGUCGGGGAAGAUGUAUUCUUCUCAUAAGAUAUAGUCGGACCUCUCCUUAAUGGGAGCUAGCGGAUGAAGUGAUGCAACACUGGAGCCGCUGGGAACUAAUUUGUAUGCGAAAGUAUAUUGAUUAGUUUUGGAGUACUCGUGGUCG
condition_summary: 37 °C
Threshold rule: self-splicing fitness (ln) greater than or equal to -2 is true (1); below that, false (0).

CACCAGCAAUAUUACGUUGU false (0)
GCAUAGCAAUAUUACGAGGA false (0)
CUUCAGCAAUAUUACGCCAG true (1)
GAGUAGCAAUAUUACGGUUU true (1)
AUCUAGCAAUAUUACGUAUC true (1)

Asked: Reported self-splicing fitness (ln) reaches at least -2 for GUCCAGCAAUAUUACGGUAC ?
Given back: true (1)

Asked: I'd appreciate it if you could say whether AUCAAGCAAUAUUACGACGC has self-splicing fitness (ln) at least equal to -2.
Given back: true (1)

Asked: Tell me whether self-splicing fitness (ln) is at least -2 here: GCUUAGCAAUAUUACGUUAC
Given back: true (1)

Asked: API: above_or_equal(metric=self-splicing fitness (ln), cutoff=-2) for item AAUAAGCAAUAUUACGCGUA
Given back: true (1)

Asked: Kindly determine if self-splicing fitness (ln) recorded for UGACAGCAAUAUUACGACGC is above or exactly -2.
Given back: true (1)

Asked: Please tell me: is the sequence ACUUAGCAAUAUUACGCUAC at or over -2 in terms of self-splicing fitness (ln)?
Given back: true (1)

====

test_protocol: self-splicing fitness, log relative to wild type (ln ratio); higher = more splicing; Tetrahymena group I intron in knt gene, E. coli kanamycin selection, DiMSum; sequences stand for … in CUCUCU…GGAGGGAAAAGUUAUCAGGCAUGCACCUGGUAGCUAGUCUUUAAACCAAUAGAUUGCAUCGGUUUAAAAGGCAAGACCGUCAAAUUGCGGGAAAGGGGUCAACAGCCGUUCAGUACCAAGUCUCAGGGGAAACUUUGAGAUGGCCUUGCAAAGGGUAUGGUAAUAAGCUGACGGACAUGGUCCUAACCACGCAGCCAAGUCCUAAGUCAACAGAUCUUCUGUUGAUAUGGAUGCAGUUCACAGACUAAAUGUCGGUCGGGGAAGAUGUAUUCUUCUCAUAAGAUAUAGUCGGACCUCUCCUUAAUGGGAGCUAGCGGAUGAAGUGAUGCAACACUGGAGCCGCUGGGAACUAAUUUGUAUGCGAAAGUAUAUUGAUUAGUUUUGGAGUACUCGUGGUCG
condition_summary: 37 °C
quantity_name: self-splicing fitness (ln)
Numbers only.

Consider the reported self-splicing fitness (ln) for these sequences:
GAACAGCAAUAUUACGGACU -0.212
GAGGAGCAAUAUUACGUUCU -2.4
GAACAGCAAUAUUACGCGCU -0.133
CCACAGCAAUAUUACGUGGG -3.13
CUCCAGCAAUAUUACGUACG -0.463
AUUAAGCAAUAUUACGAUGC -1.86
GCUCAGCAAUAUUACGACUU -0.0421

Below: the item to evaluate.
Asked: Could you share which self-splicing fitness (ln) value was measured for UGAGAGCAAUAUUACGUGUG ?
Given back: -2.28

====

test_protocol: self-splicing fitness, log relative to wild type (ln ratio); higher = more splicing; Tetrahymena group I intron in knt gene, E. coli kanamycin selection, DiMSum; sequences stand for … in CUCUCU…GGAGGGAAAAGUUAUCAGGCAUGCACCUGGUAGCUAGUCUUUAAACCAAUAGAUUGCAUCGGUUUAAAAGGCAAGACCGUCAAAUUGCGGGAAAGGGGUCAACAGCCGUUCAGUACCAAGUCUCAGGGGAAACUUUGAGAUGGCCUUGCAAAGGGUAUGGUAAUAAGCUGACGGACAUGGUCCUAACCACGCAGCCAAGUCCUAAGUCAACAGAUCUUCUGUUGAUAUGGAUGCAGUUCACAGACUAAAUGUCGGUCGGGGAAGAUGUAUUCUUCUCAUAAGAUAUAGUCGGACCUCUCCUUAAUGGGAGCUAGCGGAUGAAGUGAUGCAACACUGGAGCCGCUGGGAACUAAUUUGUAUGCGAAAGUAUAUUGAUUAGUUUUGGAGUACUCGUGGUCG
condition_summary: 30 °C
Please note: 1 applies when self-splicing fitness (ln) is -2 or greater, and -1 applies otherwise.

AGUCAGCAAUAUUACGCUUA 1
CCCCAGCAAUAUUACGACCC 1
CAUCAGCAAUAUUACGAGCU 1
AGUUAGCAAUAUUACGUACA 1
UACUAGCAAUAUUACGGAAA -1
ACCAAGCAAUAUUACGAAUG -1

Asked: Identify whether the reported self-splicing fitness (ln) of the following sequence is -2 or greater: GUGCAGCAAUAUUACGAUUU
Given back: 1

Asked: Hello, I need to know if AACCAGCAAUAUUACGGGCC has measured self-splicing fitness (ln) not below -2. Thanks!
Given back: 1

Asked: Would you say CAGAAGCAAUAUUACGGAUA shows self-splicing fitness (ln) at minimum -2?
Given back: -1

Asked: Is the recorded value of self-splicing fitness (ln) equal to or greater than -2 for this sequence? GCCCAGCAAUAUUACGGCGC
Given back: -1

Asked: State whether the measured self-splicing fitness (ln) reaches -2, counting equality as reaching it, for CCAGAGCAAUAUUACGGCCC
Given back: -1

Asked: # check: self-splicing fitness (ln) of GGCCAGCAAUAUUACGAAGU is greater than or equal to -2
Given back: -1

Asked: Dear colleague, could you confirm whether GGACAGCAAUAUUACGCCGA has self-splicing fitness (ln) at or above -2?
Given back: 1

Asked: Confirm if self-splicing fitness (ln) reported for the sequence UACGAGCAAUAUUACGUCAG is -2 or above.
Given back: -1

Asked: Would you say UACCAGCAAUAUUACGACCA shows self-splicing fitness (ln) at minimum -2?
Given back: 1

Asked: // inclusive: self-splicing fitness (ln) at least -2? input: GUGGAGCAAUAUUACGCUAU
Given back: -1

Asked: self-splicing fitness (ln) >= -2 for CUGGAGCAAUAUUACGGUUA ?
Given back: 1

Asked: // inclusive: self-splicing fitness (ln) at least -2? input: GCGAAGCAAUAUUACGUAUA
Given back: -1

Asked: Could you verify whether the entry CAUAAGCAAUAUUACGCUUU shows self-splicing fitness (ln) of no less than -2?
Given back: -1

Asked: Reported self-splicing fitness (ln) reaches at least -2 for AGGGAGCAAUAUUACGGCCU ?
Given back: -1

Asked: Decide: is the reported value of self-splicing fitness (ln) for AGAGAGCAAUAUUACGAUCG equal to or greater than -2?
Given back: 1
